# SYSTEM TESTED: ATM (Homo sapiens)
# Construct: detecting phosphorylation of Chk2 in a human non-small cell lung cancer cell line NCI-H460 (ATCC company); host or cells: NCI-H460 human non-small cell lung cancer cells
# Sequence (Q13315 whole entry): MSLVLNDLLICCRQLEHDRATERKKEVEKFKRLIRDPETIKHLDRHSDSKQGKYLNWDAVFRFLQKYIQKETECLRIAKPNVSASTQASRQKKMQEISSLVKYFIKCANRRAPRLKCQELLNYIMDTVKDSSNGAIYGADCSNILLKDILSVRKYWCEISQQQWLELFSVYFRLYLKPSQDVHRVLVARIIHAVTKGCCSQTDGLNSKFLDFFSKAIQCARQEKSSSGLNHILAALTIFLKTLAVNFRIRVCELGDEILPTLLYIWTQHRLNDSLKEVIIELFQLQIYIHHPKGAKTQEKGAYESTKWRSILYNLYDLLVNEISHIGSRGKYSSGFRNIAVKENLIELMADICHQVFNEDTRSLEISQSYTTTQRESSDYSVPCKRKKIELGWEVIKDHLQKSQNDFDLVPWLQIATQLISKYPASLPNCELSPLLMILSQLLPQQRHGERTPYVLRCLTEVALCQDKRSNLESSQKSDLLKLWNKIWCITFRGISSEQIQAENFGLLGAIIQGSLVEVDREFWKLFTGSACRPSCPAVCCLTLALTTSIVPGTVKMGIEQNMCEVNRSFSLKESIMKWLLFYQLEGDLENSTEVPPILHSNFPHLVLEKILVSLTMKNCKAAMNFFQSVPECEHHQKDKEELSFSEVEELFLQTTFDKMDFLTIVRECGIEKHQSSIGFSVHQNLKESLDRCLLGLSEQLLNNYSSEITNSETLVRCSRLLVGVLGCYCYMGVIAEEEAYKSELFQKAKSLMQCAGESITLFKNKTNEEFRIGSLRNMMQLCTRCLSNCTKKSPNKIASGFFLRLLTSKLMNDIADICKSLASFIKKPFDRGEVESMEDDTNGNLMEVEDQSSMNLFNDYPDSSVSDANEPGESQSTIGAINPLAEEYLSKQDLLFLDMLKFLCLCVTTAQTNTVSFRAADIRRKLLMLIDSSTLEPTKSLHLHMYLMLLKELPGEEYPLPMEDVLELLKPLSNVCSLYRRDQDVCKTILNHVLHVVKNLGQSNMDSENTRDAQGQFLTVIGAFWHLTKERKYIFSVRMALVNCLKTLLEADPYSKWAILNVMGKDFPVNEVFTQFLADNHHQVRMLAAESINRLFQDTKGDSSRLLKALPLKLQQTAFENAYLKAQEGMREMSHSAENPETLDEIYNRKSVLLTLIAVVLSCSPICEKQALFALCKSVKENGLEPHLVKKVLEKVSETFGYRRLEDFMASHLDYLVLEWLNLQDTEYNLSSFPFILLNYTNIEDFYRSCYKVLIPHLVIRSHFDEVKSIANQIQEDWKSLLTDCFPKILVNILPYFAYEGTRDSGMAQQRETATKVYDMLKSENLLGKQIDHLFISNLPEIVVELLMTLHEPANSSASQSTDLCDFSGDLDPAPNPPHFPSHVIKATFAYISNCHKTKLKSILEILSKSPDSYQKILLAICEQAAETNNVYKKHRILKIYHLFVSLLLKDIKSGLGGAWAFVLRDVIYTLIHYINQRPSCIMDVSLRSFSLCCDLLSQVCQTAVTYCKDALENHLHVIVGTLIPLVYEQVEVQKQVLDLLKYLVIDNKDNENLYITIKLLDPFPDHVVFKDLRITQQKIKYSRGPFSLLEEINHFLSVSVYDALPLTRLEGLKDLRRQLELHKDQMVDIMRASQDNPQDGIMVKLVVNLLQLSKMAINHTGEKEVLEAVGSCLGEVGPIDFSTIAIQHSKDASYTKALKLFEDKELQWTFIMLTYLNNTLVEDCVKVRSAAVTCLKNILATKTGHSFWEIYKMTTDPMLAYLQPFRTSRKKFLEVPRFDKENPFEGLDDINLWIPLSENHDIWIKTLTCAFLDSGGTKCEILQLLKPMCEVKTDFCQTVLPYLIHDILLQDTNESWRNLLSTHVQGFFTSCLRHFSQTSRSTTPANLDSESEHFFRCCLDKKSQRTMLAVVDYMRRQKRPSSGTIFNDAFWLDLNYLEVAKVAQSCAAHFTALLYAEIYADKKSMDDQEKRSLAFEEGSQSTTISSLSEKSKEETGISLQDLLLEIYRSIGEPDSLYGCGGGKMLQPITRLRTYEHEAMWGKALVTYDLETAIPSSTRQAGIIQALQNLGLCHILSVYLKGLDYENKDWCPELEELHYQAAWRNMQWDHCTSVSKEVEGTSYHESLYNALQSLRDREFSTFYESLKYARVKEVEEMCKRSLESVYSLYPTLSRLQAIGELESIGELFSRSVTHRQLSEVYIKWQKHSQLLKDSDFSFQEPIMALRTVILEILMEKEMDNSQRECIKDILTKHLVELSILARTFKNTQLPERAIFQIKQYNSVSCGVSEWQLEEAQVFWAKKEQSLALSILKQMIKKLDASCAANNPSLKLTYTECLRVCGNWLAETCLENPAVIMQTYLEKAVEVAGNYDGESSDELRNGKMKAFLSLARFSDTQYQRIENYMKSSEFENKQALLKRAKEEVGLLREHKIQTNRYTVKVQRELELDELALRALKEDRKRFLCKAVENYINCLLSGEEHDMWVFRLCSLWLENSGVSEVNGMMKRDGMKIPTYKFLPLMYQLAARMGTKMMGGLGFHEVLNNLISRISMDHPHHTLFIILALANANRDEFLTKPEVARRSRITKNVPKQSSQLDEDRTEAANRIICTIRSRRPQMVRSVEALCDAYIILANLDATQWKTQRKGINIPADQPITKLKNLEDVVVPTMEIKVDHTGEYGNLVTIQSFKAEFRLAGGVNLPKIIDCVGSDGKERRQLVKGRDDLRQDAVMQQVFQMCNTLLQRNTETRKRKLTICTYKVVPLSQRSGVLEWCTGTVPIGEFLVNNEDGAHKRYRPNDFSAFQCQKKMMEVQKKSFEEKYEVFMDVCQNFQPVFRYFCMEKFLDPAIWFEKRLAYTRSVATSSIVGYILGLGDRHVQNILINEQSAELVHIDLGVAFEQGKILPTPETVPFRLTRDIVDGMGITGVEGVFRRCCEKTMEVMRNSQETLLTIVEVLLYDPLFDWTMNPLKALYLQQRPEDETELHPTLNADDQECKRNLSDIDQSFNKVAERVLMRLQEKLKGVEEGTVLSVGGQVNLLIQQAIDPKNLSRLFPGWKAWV
# EXPERIMENT DESCRIPTION: ATM inhibition test (phosphorylation of Chk2 generated by ionizing radiation, AlphaScreen SureFire)
# Format: cell-based
# RUN PARAMETERS: phosphorylated Chk2 in NCI-H460 cells, ionizing radiation 8Gy, 1 hour after test compound treatment; read-out: ATM inhibitory activity
# Protocol: ATM inhibitory effects of a test compound were measured by detecting phosphorylation of Chk2 in a human non-small cell lung cancer cell line NCI-H460 (ATCC company). The level of phosphorylated Chk2 generated by an ionizing radiation was measured using AlphaScreen SureFire (TGR Biosciences). The cells were seeded by 40000 cells per well in 96-well CellBIND® plates (Corning International Inc.), and incubated at 37° C. overnight in 5% CO2. […]
pIC50: −log10 of the molar value.
READOUT LABEL: pIC50

Exercise: // pIC50 lookup, key: Cn1cc(-c2cncc(CNc3ccc4c(c3)Sc3cccc(-c5cc(N6CCOCC6)cc(=O)[nH]5)c3O4)c2)cn1
Key: 6.30 to 7.00

Exercise: Moving on to O=c1cc(N2CCOCC2)cc(-c2cccc3c2Oc2ccc(NC4CCN(Cc5ccoc5)CC4)cc2C3)[nH]1
Key: 6.30 to 7.00

Exercise: Moving on to O=c1cc(N2CCOCC2)cc(-c2cccc3c2Oc2ccc(NCCN4CCOCC4)cc2S3)[nH]1
Key: 6.30 to 7.00

Exercise: Moving on to Cc1ccnc(C(C)Nc2ccc3c(c2)Cc2cccc(-c4cc(N5CCOCC5)cc(=O)[nH]4)c2O3)c1 (single isomer, unassigned) [Example 2-14-93-2]
Key: > 7.00

Exercise: Moving on to COc1nccc(C(C)Nc2ccc3c(c2)Cc2cccc(-c4cc(N5CCOCC5)cc(=O)[nH]4)c2O3)n1 (centres unmarked)
Key: 6.30 to 7.00

Exercise: Moving on to CC(CN1CCC(F)(F)C1)Nc1ccc2c(c1)Sc1cccc(-c3cc(N4CCOCC4)cc(=O)[nH]3)c1S2 (centres unmarked)
Key: 6.30 to 7.00

Exercise: Moving on to COc1cncc(C(C)Nc2ccc3c(c2)Sc2cccc(-c4cc(N5CCOCC5)cc(=O)[nH]4)c2S3)n1 (centres unmarked)
Key: 6.30 to 7.00

Exercise: Moving on to COCCOCC(Nc1ccc2c(c1)Sc1cccc(-c3cc(N4CCOCC4)cc(=O)[nH]3)c1S2)c1nccc(C)n1 (centres unmarked)
Key: > 7.00

Exercise: Moving on to CCOc1ccnc(CNc2ccc3c(c2)Cc2cccc(-c4cc(N5CCOCC5)cc(=O)[nH]4)c2O3)c1
Key: > 7.00

Exercise: Moving on to O=c1cc(N2CCOCC2)cc(-c2cccc3c2Sc2ccc(NC(CN4CCOCC4)CN4CCOCC4)cc2S3)[nH]1
Key: > 7.00

Exercise: Moving on to CCN(CC)CC(Nc1ccc2c(c1)Sc1cccc(-c3cc(N4CCOCC4)cc(=O)[nH]3)c1S2)c1ncc(C)cn1 (centres unmarked)
Key: 6.30 to 7.00

Exercise: Moving on to Cc1cnc(C(C)Nc2ccc3c(c2)Sc2cccc(-c4cc(N5CCOCC5)cc(=O)[nH]4)c2S3)cn1 (single isomer, unassigned) [Example 1-12-137-2]
Key: > 7.00

Exercise: Moving on to O=c1cc(N2CCOCC2)cc(-c2cccc3c2Oc2ccc(NCc4ccnc(N5CCOCC5)n4)cc2C3)[nH]1
Key: 6.30 to 7.00

Exercise: Moving on to COCc1ccc(CNc2ccc3c(c2)Cc2cccc(-c4cc(N5CCOCC5)cc(=O)[nH]4)c2O3)cn1
Key: 6.30 to 7.00
